Target: HCV polymerase (NS5B) type 1a (Hepatitis C virus genotype 1a)
Construct: made in house; host or cells: Escherichia coli (by the 'similar method' of the 1b enzyme)
Assay: Assay of enzyme (HCV polymerase) inhibitory activity, type 1a enzyme
Assay type: biochemical, HCV type 1a (cloned from the blood of patients)
Details: HCV polymerase inhibitory activity (IC50), 1a, type 1a enzyme 1.5 μg/ml, 25° C., 60 min
endpoint-name: IC50

For orientation, consider the following solved cases.
molecule: CC(=O)N1CCN(S(=O)(=O)c2ccc(C(C)C)cc2)[C@@H](C(=O)NCc2ccc(C(C)(C)C)cc2)C1
IC50: < 100 nM
//
molecule: CC(=O)N1CCN(S(=O)(=O)c2ccc(CC(C)(C)C)cc2)[C@@H](C(=O)NCc2ccc(C(C)C)cc2)C1
IC50: < 100 nM
//
molecule: Cc1cc(C(C)C)ccc1CNC(=O)[C@H]1CN(c2nc(C)c(C(=O)O)s2)CCN1S(=O)(=O)c1ccc(OC(F)(F)F)cc1
IC50: < 100 nM
//
molecule: CC(=O)N1CCN(S(=O)(=O)c2ccc(C(C)C)cc2)C(C(=O)NCc2ccc(-c3ccccc3Cl)cc2)C1 (stereo not shown)
IC50: > 1000 nM
//
molecule: COC(=O)COc1ccc(S(=O)(=O)N2CCN(C(C)=O)C[C@@H]2C(=O)NCc2ccc(C(C)C)cc2)cc1
IC50: > 1000 nM
//
molecule: CCCc1ccc(CNC(=O)[C@H]2CN(C(=O)Cc3ccncc3)CCN2S(=O)(=O)c2ccc(OC(F)(F)F)cc2)cc1
IC50: < 100 nM

Given the molecule CC(C)c1ccc(CNC(=O)[C@H]2CN(C(=O)Cc3ccccc3)CCN2S(=O)(=O)c2ccc(C(F)(F)F)cc2)cc1 , write its reported IC50.
> 1000 nM

---

Molecular target: HCV polymerase (NS5B) type 1a (Hepatitis C virus genotype 1a)
Construct: made in house; host or cells: Escherichia coli (by the 'similar method' of the 1b enzyme)
Experiment: Assay of enzyme (HCV polymerase) inhibitory activity, type 1a enzyme
Assay type: biochemical, HCV type 1a (cloned from the blood of patients)
Conditions: HCV polymerase inhibitory activity (IC50), 1a, type 1a enzyme 1.5 μg/ml, 25° C., 60 min
Procedure: The evaluation of the HCV polymerase inhibitory activity of the compound of the present invention is explained in the following. This polymerase is an enzyme coded for by the non-structural protein region called NS5B on the genome RNA of HCV. i) Preparation of Enzyme (HCV Polymerase) […] The HCV polymerase inhibitory activity (IC50) of the compound of the present invention was calculated from the values of radioactivity of the enzyme reaction with and without the test substance. […]
Where a name gives a salt, the structure may show the parent alone.
IC50 for assorted compounds

Here are 2 compounds together with their reported answers.
compound: CC(C)c1ccc(S(=O)(=O)N2CCN(C3=NCCN3)CC2C(=O)NCc2ccc(C(F)(F)F)cc2)cc1 (stereo not drawn)
target-under-test: HCV polymerase (NS5B) type 1a (Hepatitis C virus genotype 1a)
IC50: > 1000 nM

compound: Cc1cc(C(C)C)ccc1CNC(=O)[C@H]1CN(c2nc(C)c(C(=O)O)s2)CCN1S(=O)(=O)c1ccc(C(F)(F)F)cc1
target-under-test: HCV polymerase (NS5B) type 1a (Hepatitis C virus genotype 1a)
IC50: < 100 nM

Give the measured IC50 for CC(=O)N1CCN(S(=O)(=O)c2ccc(Oc3cccnc3)cc2)C(C(=O)NCc2ccc(C(F)(F)F)cc2)C1 (stereo not drawn) [Example 66, hydrochloride]
> 1000 nM
